test system: activated LAL (Limulus Amebocyte Lysate); test: Single-stage chromogenic LAL-test (hydrolysis of the chromogenic substrate by endotoxin-activated LAL, pNA read at 405 nm); format: biochemical, Limulus Potyphemus; conditions: substrate concentration 2.2 mM in the reaction solution; endotoxin 0.1-1.2 EU/ml; Tris buffer pH 7.9; 37° C., 15 min; absorbance 405 nm
Counter-ions that a name gives are not always drawn. Peptide text beside a SMILES is read from it. * marks the point of attachment. pNA = O=[N+]([O-])c1ccc(N*)cc1
REPORTED_PROPERTY: Relative activity (slope of endotoxin standard curve, S-2423 = 100%)

[
  {
    "COMPOUND": "CC[C@H](C)[C@H](NC(C)=O)C(=O)N[C@@H](CCC(=O)O)C(=O)NCC(=O)N[C@@H](CCCCN)C(=O)Nc1ccc([N+](=O)[O-])cc1 [Substrate S-2834, Ac--Ile--Glu--Gly--Lys--pNA.HCl] (Ac-IEGK-pNA)",
    "TARGET_OF_ASSAY": "activated LAL (Limulus Amebocyte Lysate)",
    "READOUT_UNIT": "%",
    "NUMERIC_RESULT": 126
  },
  {
    "COMPOUND": "CC[C@H](C)[C@H](NC(C)=O)C(=O)N[C@@H](CCC(=O)O)C(=O)OCC(=O)N[C@@H](CCCNC(=N)N)C(=O)Nc1ccc([N+](=O)[O-])cc1 [Substrate S-2860, Ac--Ile--Glu-Glycolyl-Arg--pNA.HCl]",
    "TARGET_OF_ASSAY": "activated LAL (Limulus Amebocyte Lysate)",
    "READOUT_UNIT": "%",
    "NUMERIC_RESULT": 142
  },
  {
    "COMPOUND": "CC[C@H](C)[C@H](NC(C)=O)C(=O)N[C@@H](CCC(=O)O)C(=O)NCC(=O)N[C@@H](CCCNC(=N)N)C(=O)Nc1ccc([N+](=O)[O-])cc1 [Substrate S-2423, Ac--Ile--Glu--Gly--Arg--pNA.HCl, reference compound] (Ac-IEGR-pNA)",
    "TARGET_OF_ASSAY": "activated LAL (Limulus Amebocyte Lysate)",
    "READOUT_UNIT": "%",
    "NUMERIC_RESULT": 100
  },
  {
    "COMPOUND": "CC[C@H](C)[C@H](NC(C)=O)C(=O)N[C@@H](CO)C(=O)NCC(=O)N[C@@H](CCCCN)C(=O)Nc1ccc([N+](=O)[O-])cc1 [Substrate S-2854, Ac--Ile--Ser--Gly--Lys--pNA.HCl] (Ac-ISGK-pNA)",
    "TARGET_OF_ASSAY": "activated LAL (Limulus Amebocyte Lysate)",
    "READOUT_UNIT": "%",
    "NUMERIC_RESULT": 131
  }
]
